- Assay summary: chemical genetic growth profiling, strain panel (AID 1159580);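 also: tested at 20 µM; growth read once vehicle control cultures reached saturation at 30 °C; 1 = growth at the plate median or of vehicle wells; lower values mean less growth of the strain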
- Run parameters: S. cerevisiae deletion strains, growth OD, locus YEL061C, strain CIN8 (second series), active compounds read low
Screen size: about 5,500 compounds; about 2,000 (36%) were called active. Not shown: some 18% with an inconclusive outcome. The list shows a part of the results.
Observation type: normalized growth
Field format: numeric only.

O=C1c2c(O)cccc2Cc2cccc(O)c21 :: 0.986

Give the value of normalized growth reported for the following: Cc1ccc(S(=O)(=O)NC(=O)NN2CC3CCCC3C2)cc1 (configuration not stated)
0.955

Give the value of normalized growth reported for the following: O=C1C(O)=C(O)C(=O)C(O)=C1O
1.01

Give the value of normalized growth reported for the following: C#C[C@]1(OC(C)=O)CCC2C3CCC4=CC(=O)CC[C@@H]4C3CC[C@@]21C (some centres not stated)
0.991

Give the value of normalized growth reported for the following: Cc1cc(O)ccc1Cl
1.01

Give the value of normalized growth reported for the following: Cc1cn([C@H]2C[C@H](N=[N+]=[N-])[C@@H](CO)O2)c(=O)[nH]c1=O
0.999

Give the value of normalized growth reported for the following: C#C[C@]1(O)CCC2C3CCC4=CC(=O)CC[C@@H]4C3CC[C@@]21CC (some centres not stated)
1

Give the value of normalized growth reported for the following: CCN1C[C@]2(OC(=O)c3ccccc3NC(C)=O)CCC(OC)[C@]34C1[C@H](CC23)[C@@]1(O)CC(OC)[C@H]2CC4C1(O)[C@H]2OC (some centres not stated)
0.963

Give the value of normalized growth reported for the following: Cc1cc(O)cc(O)c1C(=O)O
1.01

Give the value of normalized growth reported for the following: COC1=C[C@@H]2[C@@H]3Cc4ccc(OC)c(O)c4[C@]2(CCN3C)CC1=O
0.999

Give the value of normalized growth reported for the following: CC1=NS(=O)(=O)c2cc(Cl)ccc2N1
0.972

Give the value of normalized growth reported for the following: COc1ccc2c(c1)c(CC(=O)OCC(=O)O)c(C)n2C(=O)c1ccc(Cl)cc1
0.995

Give the value of normalized growth reported for the following: CC(C)(Sc1cc(C(C)(C)C)c(O)c(C(C)(C)C)c1)Sc1cc(C(C)(C)C)c(O)c(C(C)(C)C)c1
1.01

Give the value of normalized growth reported for the following: C/C=C1\[C@H]2C=C(C)C[C@]1(N)c1ccc(=O)[nH]c1C2
1.03

Give the value of normalized growth reported for the following: N#CC(O[C@@H]1O[C@H](CO[C@@H]2O[C@H](CO)[C@@H](O)[C@H](O)[C@H]2O)[C@@H](O)[C@H](O)[C@H]1O)c1ccccc1 (some centres not stated)
0.991

Give the value of normalized growth reported for the following: Nc1c2c(nc3ccccc13)CCCC2O (configuration not stated)
1.01

Give the value of normalized growth reported for the following: CO[C@@]12[C@@H]3NC3CN1C1=C(C(=O)C(N)=C(C)C1=O)[C@@H]2COC(N)=O (some centres not stated)
0.95

Give the value of normalized growth reported for the following: CC(C)(C#N)O[C@@H]1O[C@H](CO)[C@@H](O)[C@H](O)[C@H]1O
1.02

Give the value of normalized growth reported for the following: NCCC(=O)N[C@@H](Cc1cnc[nH]1)C(=O)O
1.01

Give the value of normalized growth reported for the following: O=c1[nH]cc(F)c(=O)[nH]1
0.728

Give the value of normalized growth reported for the following: Nc1ccc(S(=O)(=O)Nc2ccnn2-c2ccccc2)cc1
0.992

Give the value of normalized growth reported for the following: Cc1cc(O)cc(=O)o1
0.992

This collection of values is drawn from PubChem BioAssay AID1159580.
